Origin of measurements: ChEMBL document CHEMBL1201862

System: HCC 2998
Experiment: NCI tumour cell line growth inhibition, 48 h
The source made the active and inactive calls. Rule as the data show it: active = GI50 up to about 1.1 µM and inactive = higher.
Please respond with reported GI50 for every item in the list.

Data point: `CC1=C(C(=O)Nc2cc(=O)n(C)c(=O)n2C)C(c2cccc([N+](=O)[O-])c2)C(C(=O)Nc2cc(=O)n(C)c(=O)n2C)=C(C)N1` ; GI50 = 31.5 µM (inactive)

Data point: `O=C(/N=N/c1ccccc1Cl)NNc1ccccc1Cl` ; GI50 = 27.1 µM (inactive)

Data point: `O=C(Nc1ccccc1)N1CCNC1=S` ; GI50 = 15.5 µM (inactive)

Data point: `Cc1c(-c2ccccc2)c(C#N)c2nnn(-c3ccc([N+](=O)[O-])cc3)c(=O)n12` ; GI50 = 26.6 µM (inactive)

Data point: CC(Nc1ccc(S(=O)(=O)NC(=N)N)cc1)c1c2ccccc2nc2ccccc12 (centres undefined) ; GI50 = 27.5 µM (inactive)

Data point: `C/C(CC(=O)Nc1cc(C)ccc1C)=N\NC(=O)c1ccncc1` ; GI50 = > 100 µM (inactive)

Data point: `Nc1ccc(S(=O)(=O)c2ccc(/N=[N+](\[O-])c3ccc(S(=O)(=O)c4ccc(N)cc4)cc3)cc2)cc1` ; GI50 = > 100 µM (inactive)

Data point: `CCOC(=O)CSc1nnc(CSc2nc(-c3ccccc3)c(-c3ccccc3)[nH]2)n1-c1ccccc1` ; GI50 = 19.5 µM (inactive)

Data point: COC(=O)CCC(NC(=S)N/N=C/c1cccs1)C(=O)OC (centres undefined) ; GI50 = > 100 µM (inactive)
